Hello, the source for this data is ChEMBL document CHEMBL3988442, in case you need it.

Recorded Percent Effect values for a group of compounds are listed next.
tested on: Trypanosoma brucei; assay: Trypanosoma brucei 72 hour study; assay type: functional, organism-based; parameters: scale not given: in the data most compounds retested in dose-response had high values; conditions: 30 µM; 30.03 µM
Out of some 66,000 compounds screened, about 960 (1.5%) showed an effect of 50% or more. The entries come from a sample that favours strong results as a whole.
Parameter Measured: Percent Effect (%)

compound="COc1cccc(N2CCN(CC(O)c3ccc(C)cc3)CC2)c1 (stereo not drawn)" test_value=17.53
compound=CC(=O)Nc1ccc(-c2ccccc2NC(=O)CN)cc1 test_value=-52.76
compound="CN1CCCCCC1C(=O)N1CCN(c2ccccc2C#N)CC1 (stereo not drawn)" test_value=14.65
compound="COc1ccccc1CC1CCCN(CCC#N)C1 (stereo not drawn)" test_value=-5.815
compound="CC(=O)N1CCOCC2(CN(Cc3ccc(C)o3)CCO2)C1.O=C(O)C(F)(F)F (stereo not drawn)" test_value=0.2271
compound=O=C(C1CCOCC1)N1CCO[C@H]2[C@H](OCc3ccncc3)CC[C@@H]21.O=C(O)C(F)(F)F test_value=-17.19
compound=CC(C)Nc1oc(-c2ccc(S(=O)(=O)N(C)C)o2)nc1C#N test_value=-8.182
compound=COc1ccccc1C1(CNc2cc(C(=O)N(C)C)ccn2)CC1 test_value=-21.75
compound=O=C(CCn1ccccc1=O)Nc1ccc(C(=O)O)cc1 test_value=4.206
compound="O=C(NCc1ccc2c(c1)CCCO2)c1ccccc1C1CCNC1 (stereo not drawn)" test_value=-18.86
compound=CNc1oc(-c2ccc(S(=O)(=O)N(C)C)o2)nc1C#N test_value=-28.85
compound="CC(O)CNCc1ccc(OCc2ccc3c(c2)OCCO3)cc1.Cl (stereo not drawn)" test_value=-67.49
compound=O=C(c1cc(Cl)c[nH]c1=O)N1C[C@@H]2CC[C@H](C1)N(Cc1ccccc1)C2 test_value=-61.83
compound=Cc1ccc(SC2CCCC2)c(C(=O)NCCO)c1 test_value=-19.93
compound=CN(C)S(=O)(=O)c1ccc(-c2nc(C#N)c(NC3CC3)o2)o1 test_value=-26.91
compound=COc1cccc(CNC(C)C)c1OCc1ccc(C)cc1.Cl test_value=-4.618
compound="CC(C)Cc1cc(CNC(=O)c2ccccc2C2CCNC2)no1 (stereo not drawn)" test_value=-25.71
compound="COc1ccc(C)cc1S(=O)(=O)NCC(c1cccn1C)N(C)C (stereo not drawn)" test_value=-85.17
compound=Cc1cc(C)n(-c2ccccc2NC(=O)NCCCN(C)S(C)(=O)=O)n1 test_value=-25.36
compound=COc1ccccc1C1(CNc2ccc(C(=O)N(C)C)cn2)CC1 test_value=-17.01
compound="CN(Cc1ccc2c(c1)OCO2)C(=O)c1ccc(C2CCCNC2)cc1 (stereo not drawn)" test_value=78.75
compound="COc1ccccc1CC1CCCN(CC(N)=O)C1 (stereo not drawn)" test_value=-11.23
compound="COc1cc(CNCC(C)O)cc(Cl)c1OCc1ccc(C)cc1.Cl (stereo not drawn)" test_value=97.25
